biological target: UniProt:P29317
Sequence (P29317 whole entry): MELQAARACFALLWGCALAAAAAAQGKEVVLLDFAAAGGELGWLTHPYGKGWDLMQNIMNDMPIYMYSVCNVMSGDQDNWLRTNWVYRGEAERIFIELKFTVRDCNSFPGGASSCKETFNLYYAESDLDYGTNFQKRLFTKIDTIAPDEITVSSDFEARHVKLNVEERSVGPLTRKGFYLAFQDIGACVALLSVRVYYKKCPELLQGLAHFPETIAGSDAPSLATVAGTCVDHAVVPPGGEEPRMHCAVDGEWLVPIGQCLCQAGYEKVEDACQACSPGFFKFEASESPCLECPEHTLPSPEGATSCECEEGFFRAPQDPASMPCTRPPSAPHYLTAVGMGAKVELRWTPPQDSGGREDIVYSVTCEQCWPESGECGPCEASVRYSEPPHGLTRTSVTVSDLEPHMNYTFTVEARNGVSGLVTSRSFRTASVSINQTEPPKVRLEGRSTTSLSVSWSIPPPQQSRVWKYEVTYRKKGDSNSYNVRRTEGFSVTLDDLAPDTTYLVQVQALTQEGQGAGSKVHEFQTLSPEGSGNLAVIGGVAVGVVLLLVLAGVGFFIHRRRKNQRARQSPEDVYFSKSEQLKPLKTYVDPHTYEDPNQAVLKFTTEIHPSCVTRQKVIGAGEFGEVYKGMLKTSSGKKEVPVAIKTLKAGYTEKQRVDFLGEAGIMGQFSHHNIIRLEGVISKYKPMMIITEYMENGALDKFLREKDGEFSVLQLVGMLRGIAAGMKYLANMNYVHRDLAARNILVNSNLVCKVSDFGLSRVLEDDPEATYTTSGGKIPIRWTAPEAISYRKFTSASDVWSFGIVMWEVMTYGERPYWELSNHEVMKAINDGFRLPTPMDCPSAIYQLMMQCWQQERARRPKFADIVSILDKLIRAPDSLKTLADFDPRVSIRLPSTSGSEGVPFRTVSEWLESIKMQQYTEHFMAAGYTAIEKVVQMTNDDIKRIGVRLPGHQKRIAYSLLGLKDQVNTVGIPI
Listed below: deltaTm values for each entry.
The reply should contain only the number, in K.

The cases that follow already have their deltaTm on record.
| CHEMICAL SMILES | deltaTm / K |
| --- | --- |
| COc1cc(-c2cnc3nc2NCCCNS(=O)(=O)c2cc(ccc2O)N3)ccc1F | 7.9 |
| COc1cc(-c2cnc3nc2NCCCNS(=O)(=O)c2cccc(c2)N3)ccc1Cl | 7.7 |
| O=S1(=O)NCCCNc2nc(ncc2-c2ccc(F)c(C(F)(F)F)c2)Nc2cccc1c2 | 3 |

# input for lookup
Q) // output deltaTm; input COc1cc(-c2cnc3nc2NCCCNS(=O)(=O)c2cc(ccc2Cl)N3)ccc1F ; system UniProt:P29317
A) 6.3
